molecular target: human 5-HT6 receptor (Homo sapiens); construct: expressed in transfected cells; host or cells: HEK293 (G-418 selected); assay: 5-HT6 receptor binding assay ([3H]-LSD displacement, SPA, membranes of transfected HEK293 cells); details: [3H]LSD 3 nM, HEK293 membranes; read-out: Binding affinity (Ki) at the human 5-HT6 receptor
Sequence (P50406 whole entry): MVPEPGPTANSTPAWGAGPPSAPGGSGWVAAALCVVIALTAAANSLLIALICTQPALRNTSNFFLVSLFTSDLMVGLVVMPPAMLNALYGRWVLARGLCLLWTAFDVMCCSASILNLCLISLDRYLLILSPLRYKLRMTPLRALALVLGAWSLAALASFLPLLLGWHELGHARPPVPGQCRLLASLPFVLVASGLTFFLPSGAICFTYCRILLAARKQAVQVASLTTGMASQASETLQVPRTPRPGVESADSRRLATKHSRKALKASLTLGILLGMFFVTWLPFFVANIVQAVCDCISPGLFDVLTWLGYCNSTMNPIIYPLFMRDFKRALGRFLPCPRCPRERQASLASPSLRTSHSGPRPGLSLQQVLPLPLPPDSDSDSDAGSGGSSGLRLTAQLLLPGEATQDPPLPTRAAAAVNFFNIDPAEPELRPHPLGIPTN
Counter-ions that a name gives are not always drawn.
VALUE_TYPE: Ki
Form field: result (number plus unit)

input: What does the data say about its Ki? Entry: O=S(=O)(Oc1ccccc1Cl)c1cc(N2CCNCC2)c2occc2c1 [Example 2, trifluoroacetate]
output: 2.3 nM

input: Repeat for the following compound: COc1ccc(C)cc1OS(=O)(=O)c1cc(N2CCNCC2)c2occc2c1 [Example 1, trifluoroacetate]
output: 0.6 nM

input: Repeat for the following compound: O=S(=O)(Oc1ccccc1C(F)(F)F)c1cc(N2CCNCC2)c2occc2c1 [Example 3, trifluoroacetate]
output: 2 nM
